Each recorded value in this set is attributed to patent US20030017565A1.

RUN DESCRIPTION: leaching of Japan cedar blocks, treating mixture with tung oil (Example 8)
Format: physicochemical
ASSAY CONDITIONS: Example 1 enzyme, 5% LSA, 2,000 ppm tung oil, pH 8.1-8.5, species as bracketed (Copper, Zinc, Nickel, H = hinokitiol), else the agent named
Experimental: The amounts of the chemical agents and lignosulfonic acid which were eluted were calculated and compared taking the amounts of them injected upon the impregnation treatment as 100%.
PROPERTY LABEL: Elution Rate (%) Chemical Agent

> print(dat)
                                   compound                   property.label  measured.result
1  C=CCN=C=S [100 ppm Allyl isothiocyanate, Allyl isothiocyanate]  Elution Rate (%) Chemical Agent              1.3
2  CC1=CC[C@@H]2C[C@H]1C2(C)C [500 ppm (1R)-(+)-α-pinene, (1R)-(+)-α-pinene]  Elution Rate (%) Chemical Agent              0.2
3  CC(C)c1cccc(=O)c(O)c1 [1000 ppm Hinokitiol, Hinokitiol]  Elution Rate (%) Chemical Agent              0.5
